# TARGET_ENTITY: VRK1A (Homo sapiens, UniProt Q99986)
# Construct: purchased in-house DSF kinase panel (SGC-style construct names; the trailing letter is the construct ID)
# Sequence (Q99986 1-396): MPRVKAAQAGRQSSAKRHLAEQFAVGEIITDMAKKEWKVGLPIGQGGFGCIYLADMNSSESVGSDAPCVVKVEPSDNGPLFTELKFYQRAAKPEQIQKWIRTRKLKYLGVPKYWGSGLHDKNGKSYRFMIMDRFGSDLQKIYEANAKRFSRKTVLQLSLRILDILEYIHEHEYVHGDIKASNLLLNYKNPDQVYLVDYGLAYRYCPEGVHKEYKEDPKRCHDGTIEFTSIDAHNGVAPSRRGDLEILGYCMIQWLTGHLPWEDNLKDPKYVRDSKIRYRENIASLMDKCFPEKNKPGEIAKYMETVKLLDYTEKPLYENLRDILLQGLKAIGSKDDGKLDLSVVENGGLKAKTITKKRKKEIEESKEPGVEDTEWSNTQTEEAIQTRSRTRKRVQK
# ASSAY_SUMMARY: DSF Tm panel
# Assay type: binding
# CONDITION_DESCRIPTION: 10 μM compound
METRIC_NAME: ΔTm at 10 µM (°C)

[[record]]
molecule = "O=C(NCc1ccccc1C(F)(F)F)Nc1ccc2cc1OCCOCCNc1ccn3ncc-2c3n1 [compound 27]"
value = 0.4


[A] O=C(NCc1cccc(Cl)c1)Nc1ccc2cc1OCCOCCNc1ccn3ncc-2c3n1 [compound 18]
[B] O=C(NCc1ccc(Cl)cc1)Nc1ccc2cc1OCCOCCNc1ccn3ncc-2c3n1 [compound 19]
Q: // which entry reports the smaller ΔTm at 10 µM, A or B ? Identify your pick by its label.
Ans: B

[A] COc1cc(CNC(=O)Nc2ccc3cc2OCCOCCNc2ccn4ncc-3c4n2)ccc1F [compound 33]
[B] C[C@H](NC(=O)Nc1ccc2cc1OCCOCCNc1ccn3ncc-2c3n1)c1ccccc1 [compound 34]
Q: Which value of ΔTm at 10 µM is greater, the one for A or the one for B ? I would appreciate it if you answered with the label of your choice.
Ans: A
(A: 0.3 °C, B: 0 °C)

[1] COc1ccc(CNC(=O)Nc2ccc3cc2OCCOCCNc2ccn4ncc-3c4n2)cc1F [compound 32]
[2] Cc1cc(Br)ccc1CNC(=O)Nc1ccc2cc1OCCOCCNc1ccn3ncc-2c3n1 [compound 24]
Q: Given the two records 1 and 2 , choose the one whose ΔTm at 10 µM value is lower. Identify your pick by its label.
Ans: 1
(1: 0.2 °C, 2: 1 °C)

[P] O=C(NCc1ccccc1)Nc1ccc2cc1OCCOCCNc1ccn3ncc-2c3n1 [compound 16]
[Q] COc1cccc(CNC(=O)Nc2ccc3cc2OCCOCCNc2ccn4ncc-3c4n2)c1 [compound 30]
[R] O=C(NCc1ccccc1Cl)Nc1ccc2cc1OCCOCCNc1ccn3ncc-2c3n1 [compound 17]
Q: Arrange the 3 molecules by rising ΔTm at 10 µM, starting with the smallest. Sort the labels as requested; that list is your answer.
Ans: P, R, Q
